test.system: S1P1 (Homo sapiens)
Construct: expressed in transfected cells; host or cells: CHO cells (S1P1/CHO), membranes
test: Receptor [35S] GTPγS binding assay (S1P1 GTPγS)
Type: biochemical
condition.details: membranes from S1P1/CHO cells; maximal response
recorded.endpoint: S1P1 GTPgS (Ymax) (%)

### Prompt Report measured S1P1 GTPgS (Ymax); entry is CCCCOCCOc1nc2c(s1)-c1ccc([C@H]3CC[C@](N)(COP(=O)(O)O)C3)cc1CC2
### Response 107

### Prompt Report measured S1P1 GTPgS (Ymax); entry is CCCCCCCc1nc2c(s1)-c1ccc([C@H]3CC[C@](N)(COP(=O)(O)O)C3)cc1CC2
### Response 98

### Prompt Report measured S1P1 GTPgS (Ymax); entry is CCCCOc1nc2c(s1)-c1ccc([C@H]3CC[C@](N)(COP(=O)(O)O)C3)cc1CC2
### Response 58

### Prompt Report measured S1P1 GTPgS (Ymax); entry is CCCCCCOc1nc2c(s1)-c1ccc([C@H]3CC[C@](N)(COP(=O)(O)O)C3)cc1CC2
### Response 102

### Prompt Report measured S1P1 GTPgS (Ymax); entry is CCCCSc1nc2c(s1)-c1ccc([C@H]3CC[C@](N)(COP(=O)(O)O)C3)cc1CC2
### Response 58

A = CCCCNc1nc2c(s1)-c1ccc([C@H]3CC[C@](N)(COP(=O)(O)O)C3)cc1CC2
B = CCCc1nc2c(s1)-c1ccc([C@H]3CC[C@](N)(COP(=O)(O)O)C3)cc1CC2
### Prompt Which of these two has the smaller recorded S1P1 GTPgS (Ymax): A or B ? Identify your pick by its label.
### Response A
(A: 49%, B: 79%)

###

test.system: S1P1 (Homo sapiens, UniProt P21453)
Sequence (P21453 whole entry): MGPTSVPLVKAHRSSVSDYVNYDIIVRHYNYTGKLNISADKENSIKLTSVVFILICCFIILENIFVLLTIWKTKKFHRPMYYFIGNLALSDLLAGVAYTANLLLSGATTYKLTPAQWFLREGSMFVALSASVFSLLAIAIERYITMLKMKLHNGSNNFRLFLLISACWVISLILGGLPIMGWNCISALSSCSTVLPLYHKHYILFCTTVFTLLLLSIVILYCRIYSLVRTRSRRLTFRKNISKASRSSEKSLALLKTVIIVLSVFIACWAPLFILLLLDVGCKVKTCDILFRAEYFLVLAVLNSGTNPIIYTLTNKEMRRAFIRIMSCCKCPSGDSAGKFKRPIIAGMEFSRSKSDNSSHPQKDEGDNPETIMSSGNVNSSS
test: Receptor [35S] GTPγS binding assay (S1P1 GTPγS)
condition.details: membranes from S1P1/CHO cells; phosphorylated compounds; read-out: S1P1 GTPgS (EC50)
recorded.endpoint: EC50 (nM)

Solved cases below.
### Prompt Report measured EC50; entry is CCCc1nc2c(s1)-c1ccc([C@H]3CC[C@](N)(COP(=O)(O)O)C3)cc1CC2 [Example 28]
### Response 19

### Prompt Report measured EC50; entry is CCCCCCOc1nc2c(s1)-c1ccc([C@H]3CC[C@](N)(COP(=O)(O)O)C3)cc1CC2 [Example 30]
### Response 12

### Prompt Report measured EC50; entry is CCCCOCCOc1nc2c(s1)-c1ccc([C@H]3CC[C@](N)(COP(=O)(O)O)C3)cc1CC2 [Example 26]
### Response 1

### Prompt Report measured EC50; entry is CCCCOc1nc2c(s1)-c1ccc([C@H]3CC[C@](N)(COP(=O)(O)O)C3)cc1CC2 [Example 29]
### Response 30

I = CCCCNc1nc2c(s1)-c1ccc([C@H]3CC[C@](N)(COP(=O)(O)O)C3)cc1CC2 [Example 32]
II = CCCCCCCc1nc2c(s1)-c1ccc([C@H]3CC[C@](N)(COP(=O)(O)O)C3)cc1CC2 [Example 27]
III = CCCCSc1nc2c(s1)-c1ccc([C@H]3CC[C@](N)(COP(=O)(O)O)C3)cc1CC2 [Example 31]
### Prompt List items by EC50 in falling order. // respond by listing labels in the order requested
### Response I, III, II
(I: 133 nM, III: 20 nM, II: 10 nM)

From: patent US10633354B2
